# Assay summary: Plasma half life in rat
# Assay type: ADME, organism-based
Outcome measure: half-life (h)

- COC(=O)C1=C(C)NC(=O)N(C(=O)NCCCN2CCN(c3ccccc3C(N)=O)CC2)C1c1ccc(F)c(F)c1 (stereo unspecified): 2

----------
Below, each entry is listed alongside its reported Fold selectivity.
# Assay summary: Fold selectivity against alpha 1A adrenergic receptor over alpha 2A, 2B and 2C adrenergic receptors
Outcome measure: Fold selectivity

• COC(=O)C1=C(C)NC(=O)N(C(=O)NCCCN2CCN(c3ccccc3C(N)=O)CC2)C1c1cc(F)c(F)c(F)c1 (stereo not drawn) = > 430
• CC(=O)C1=C(C)NC(=O)N(C(=O)NCCCN2CCN(c3ccccc3C(N)=O)CC2)C1c1ccc(F)c(F)c1 (stereo not drawn) = > 70
• COC(=O)C1=C(C)NC(=O)N(C(=O)NCCCN2CCN(c3ccc(Cl)cc3)CC2)C1c1ccc(F)c(F)c1 (stereo not drawn) = > 65
• COC(=O)C1=C(C)NC(=O)N(C(=O)NCCCN2CCN(c3ccccc3C)CC2)C1c1ccc(F)c(F)c1 (stereo not drawn) = > 110
• CCC1=C(C(N)=O)C(c2ccc(F)c(F)c2)N(C(=O)NCCCN2CCC(C(=O)OC)(c3ccccc3)CC2)C(=O)N1 (stereo not drawn) = > 3200
• COC(=O)C1=C(C)NC(=O)N(C(=O)NCCCN2CCN(c3ccccc3)CC2)C1c1ccc(F)c(F)c1 (stereo not drawn) = > 55
• COC(=O)C1=C(C)NC(=O)N(C(=O)NCCCN2CCN(c3ccc(C(C)=O)cc3)CC2)C1c1ccc(F)c(F)c1 (stereo not drawn) = > 2
• CC(=O)C1=C(C)NC(=O)N(C(=O)NCCCN2CCN(c3ccccc3C(N)=O)CC2)C1c1cc(F)c(F)c(F)c1 (stereo not drawn) = > 160
